Every entry's value here was drawn from patent US8952024B2.

- Test system: giant foxtail (Setaria faberii)
- Protocol description: Test B pre-/postemergence plant response
- Assay type: in vivo
- Cond: Postemergence, 31 g ai/ha; scale 0 to 100 (0 no effect, 100 complete control)
Endpoint label: Plant response rating, Foxtail, Giant
Reply briefly: the number, and no unit.

# Compound, Assayed system, Plant response rating, Foxtail, Giant
measured = [
    ("Cc1cc(F)ccc1-n1c(-c2ccccc2)ncc(C(=O)C2=C(O)CCCC2=O)c1=O [Compound 48]", "giant foxtail (Setaria faberii)", 85),
]

Query: Bench note: what Plant response rating, Foxtail, Giant did Cc1ccc(C)c(-n2c(-c3ccccc3)ncc(C(=O)C3=C(O)CCCC3=O)c2=O)c1 [Compound 29] show?
Reply: 80

Query: Bench note: what Plant response rating, Foxtail, Giant did Cc1cccc(-n2c(-c3cccc(Cl)c3)ncc(C(=O)C3=C(O)CCCC3=O)c2=O)c1 [Compound 45] show?
Reply: 75

Query: Bench note: what Plant response rating, Foxtail, Giant did O=C1CCCC(O)=C1C(=O)c1cnc(-c2ccccc2)n(-c2ccc(F)cc2)c1=O [Compound 24] show?
Reply: 70

---

- Tested on: velvetleaf (Abutilon theophrasti)
- Protocol description: Test A pre-/postemergence plant response
- Assay type: in vivo
- Cond: Preemergence, 125 g ai/ha; 0 to 100 scale where 0 is no effect and 100 is complete control; approximately ten days
Listed next: entries and their corresponding Plant response rating, Velvetleaf.
Reply briefly: the number, and no unit.

Take a look at these entries with their results.
# Molecule, Reported measurement
records = [
    ("O=C(C1=C(O)C2CCC(C2)C1=O)c1cnc(-c2ccccc2)n(C2CCOCC2)c1=O (centres unmarked)", 60),
    ("COCCCn1c(-c2cc(F)cc(F)c2)ncc(C(=O)C2=C(O)C3CCC(C3)C2=O)c1=O (centres unmarked)", 50),
    ("O=C(C1=C(O)C2CCC(C2)C1=O)c1cnc(-c2ccccc2)n(C2CCCCCCCCCCC2)c1=O (centres unmarked)", 0),
    ("O=C(C1=C(O)C2CCC(C2)C1=O)c1cnc(-c2cc(F)cc(F)c2)n(-c2ccccc2)c1=O (centres unmarked)", 90),
]

Please examine the following record next.
Query: What is its Plant response rating, Velvetleaf for velvetleaf (Abutilon theophrasti)? Entry: C#Cc1ccc(-c2ncc(C(=O)C3=C(O)C4CCC(C4)C3=O)c(=O)n2C2CCCCC2)cc1 (centres unmarked)
Reply: 0

---

- Test system: barnyardgrass (Echinochloa crus-galli)
- Protocol description: Test A pre-/postemergence plant response
- Format: in vivo
- Cond: Preemergence, 125 g ai/ha; 0 to 100 scale, 0 = no effect, 100 = complete control
Listed next: entries and their corresponding Plant response rating, Barnyardgrass.
Reply briefly: the number, and no unit.

# Compound, Endpoint label, Reported measurement
data = [
    ("CCCn1c(-c2ccco2)ncc(C(=O)C2=C(O)C3CCC(C3)C2=O)c1=O (centres unmarked)", "Plant response rating, Barnyardgrass", 10),
    ("Cc1cccc(-n2c(-c3cccc(Cl)c3)ncc(C(=O)C3=C(O)CCCC3=O)c2=O)c1", "Plant response rating, Barnyardgrass", 40),
    ("CCCc1ncc(C(=O)C2=C(O)CCCC2=O)c(=O)n1CCC", "Plant response rating, Barnyardgrass", 10),
    ("CCc1ccc(-n2c(-c3cccc(F)c3)ncc(C(=O)C3=C(O)CCCC3=O)c2=O)cc1", "Plant response rating, Barnyardgrass", 30),
    ("CCCn1c(-c2ccc(Br)cc2)ncc(C(=O)C2=C(O)CCCC2=O)c1=O", "Plant response rating, Barnyardgrass", 0),
    ("Cc1ccc(-n2c(-c3cccc(Cl)c3)ncc(C(=O)C3=C(O)CCCC3=O)c2=O)cc1", "Plant response rating, Barnyardgrass", 10),
    ("CCc1ccc(-n2c(-c3cccc(Br)c3)ncc(C(=O)C3=C(O)CCCC3=O)c2=O)cc1", "Plant response rating, Barnyardgrass", 0),
]

Please examine the following record next.
Query: Bench note: what Plant response rating, Barnyardgrass did `COc1ccccc1-n1c(-c2ccccc2)ncc(C(=O)C2=C(O)CCCC2=O)c1=O` show?
Reply: 10

---

- System: sandbur (southern sandbur, Cenchrus echinatus)
- Protocol description: Test D pre-/postemergence plant response
- Format: in vivo
- Cond: Postemergence, 125 g ai/ha; scale 0 to 100 (0 no effect, 100 complete control)
Endpoint label: Plant response rating, Sandbur
Reply briefly: the number, and no unit.

Take a look at these entries with their results.
# Compound, Plant response rating, Sandbur
rows = [
    ("O=C1CCCC(O)=C1C(=O)c1cnc(-c2ccccc2)n(C2CCCCC2)c1=O", 35),
    ("O=C1CCCC(O)=C1C(=O)c1cnc(-c2cccnc2)n(-c2ccccc2)c1=O", 60),
    ("COCCCn1c(-c2cc(F)cc(F)c2)ncc(C(=O)C2=C(O)C3CCC(C3)C2=O)c1=O (stereo not shown)", 75),
]

Please examine the following record next.
Query: Bench note: what Plant response rating, Sandbur did `O=C1CCCC(O)=C1C(=O)c1cnc(-c2cccs2)n(-c2ccccc2)c1=O` show?
Reply: 90

---

- System: blackgrass (Alopecurus myosuroides)
- Protocol description: Test B pre-/postemergence plant response
- Format: in vivo
- Cond: Preemergence, 62 g ai/ha; scale 0 to 100, 0 no effect, 100 complete control
Endpoint label: Plant response rating, Blackgrass
Reply briefly: the number, and no unit.

# Molecule, Assayed system, Reported measurement
data = [
    ("Cc1ccc(C)c(-n2c(-c3ccccc3)ncc(C(=O)C3=C(O)CCCC3=O)c2=O)c1 [Compound 29]", "blackgrass (Alopecurus myosuroides)", 5),
]

Query: Bench note: what Plant response rating, Blackgrass did Cc1cccc(-n2c(-c3ccccc3)ncc(C(=O)C3=C(O)CCCC3=O)c2=O)c1F [Compound 58] show?
Reply: 0

Query: Bench note: what Plant response rating, Blackgrass did CCCn1c(-c2ccccc2)ncc(C(=O)C2=C(O)CCCC2=O)c1=O [Compound 50] show?
Reply: 0

Query: Bench note: what Plant response rating, Blackgrass did Cc1ccc(-n2c(-c3cccc(Cl)c3)ncc(C(=O)C3=C(O)CCCC3=O)c2=O)cc1 [Compound 39] show?
Reply: 0

Query: Bench note: what Plant response rating, Blackgrass did CCCCn1c(CCC)ncc(C(=O)C2=C(O)CCCC2=O)c1=O [Compound 75] show?
Reply: 0

---

Listed next: entries and their corresponding Plant response rating, Rice.
- Tested on: rice (Oryza sativa)
- Protocol description: Test B flooded paddy test
- Format: in vivo
- Cond: Flood (flooded paddy test), 125 g ai/ha; scale 0 to 100, 0 is no effect, 100 is complete control; 13 to 15 days

# Compound, Plant response rating, Rice
rows = [
    ("Cc1ccc(Cl)cc1-n1c(-c2cccc(Cl)c2)ncc(C(=O)C2=C(O)CCCC2=O)c1=O", 20),
    ("Cc1ccc(F)cc1-n1c(-c2cccc(Br)c2)ncc(C(=O)C2=C(O)CCCC2=O)c1=O", 60),
    ("CCc1ccc(-n2c(-c3cccc(F)c3)ncc(C(=O)C3=C(O)CCCC3=O)c2=O)cc1", 0),
]

Query: Bench note: what Plant response rating, Rice did `Cc1cccc(-n2c(-c3ccccc3)ncc(C(=O)C3=C(O)CCCC3=O)c2=O)c1` show?
Reply: 25

Query: Bench note: what Plant response rating, Rice did `Cc1ccc(-n2c(-c3cc(F)cc(F)c3)ncc(C(=O)C3=C(O)CCCC3=O)c2=O)cc1` show?
Reply: 90

Query: Bench note: what Plant response rating, Rice did `COCCOCCn1c(-c2ccccc2)ncc(C(=O)C2=C(O)CCCC2=O)c1=O` show?
Reply: 15

Query: Bench note: what Plant response rating, Rice did O=C1CCCC(O)=C1C(=O)c1cnc(-c2ccsc2)n(CC2CCCO2)c1=O (centres unmarked) show?
Reply: 0

Query: Bench note: what Plant response rating, Rice did `Cc1ccc(Cl)cc1-n1c(-c2ccccc2)ncc(C(=O)C2=C(O)CCCC2=O)c1=O` show?
Reply: 50

Query: Bench note: what Plant response rating, Rice did `COc1ccc(-n2c(-c3cccc(Cl)c3)ncc(C(=O)C3=C(O)CCCC3=O)c2=O)cc1` show?
Reply: 15

Query: Bench note: what Plant response rating, Rice did `COCCCn1c(-c2cccc(F)c2)ncc(C(=O)C2=C(O)CCCC2=O)c1=O` show?
Reply: 0

Query: Bench note: what Plant response rating, Rice did `O=C1CCCC(O)=C1C(=O)c1cnc(-c2cc(F)cc(F)c2)n(CC2CCCCC2)c1=O` show?
Reply: 20

Query: Bench note: what Plant response rating, Rice did `Cc1ccc(F)cc1-n1c(-c2cc(F)cc(F)c2)ncc(C(=O)C2=C(O)CCCC2=O)c1=O` show?
Reply: 0

Query: Bench note: what Plant response rating, Rice did `O=C1CCCC([O-])=C1C(=O)c1cnc(-c2ccccc2)n(-c2ccc(Cl)cc2)c1=O.[K+]` show?
Reply: 0

Query: Bench note: what Plant response rating, Rice did `Cc1cccc(-c2ncc(C(=O)C3=C(O)CCCC3=O)c(=O)n2-c2ccc(F)cc2C)c1` show?
Reply: 0

Query: Bench note: what Plant response rating, Rice did `CCOCCn1c(-c2ccccc2)ncc(C(=O)C2=C(O)CCCC2=O)c1=O` show?
Reply: 15

Query: Bench note: what Plant response rating, Rice did `O=C1CCCC(O)=C1C(=O)c1cnc(-c2cccs2)n(-c2ccccc2)c1=O` show?
Reply: 0

Query: Bench note: what Plant response rating, Rice did `CCCCn1c(C2CC2)ncc(C(=O)C2=C(O)CCCC2=O)c1=O` show?
Reply: 30

Query: Bench note: what Plant response rating, Rice did CCCn1c(-c2ccccc2)ncc(C(=O)C2=C(O)C3CCC(C3)C2=O)c1=O (centres unmarked) show?
Reply: 60

Query: Bench note: what Plant response rating, Rice did `CCc1ccc(-n2c(-c3cccc(C)c3)ncc(C(=O)C3=C(O)CCCC3=O)c2=O)cc1` show?
Reply: 0

Query: Bench note: what Plant response rating, Rice did O=C(C1=C(O)C2CCC(C2)C1=O)c1cnc(-c2ccccc2)n(C2CCOCC2)c1=O (centres unmarked) show?
Reply: 0
